B1: Twister Ribozyme (parent)
chain: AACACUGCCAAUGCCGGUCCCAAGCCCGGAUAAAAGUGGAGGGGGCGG

Variants of: B1
experiment-notes: self-cleavage, relative activity (ratio to wild type); higher = more cleavage; co-transcriptional
Quick rule: self-cleavage of at least 0.2 means Condition met, below that means Condition not met.

[[record]]
variant_code = "U6G G41C"
qualitative_label = "Condition not met"

[[record]]
variant_code = "A10G A22U"
qualitative_label = "Condition met"

[[record]]
variant_code = "A34U G44C"
qualitative_label = "Condition met"

[[record]]
variant_code = "A4G C15G"
qualitative_label = "Condition not met"

[[record]]
variant_code = "U12C G39U"
qualitative_label = "Condition met"

[[record]]
variant_code = "C3G A30G"
qualitative_label = "Condition met"

[[record]]
variant_code = "U6C C14G"
qualitative_label = "Condition not met"

[[record]]
variant_code = "A11G G41U"
qualitative_label = "Condition met"

[[record]]
variant_code = "U18G U37A"
qualitative_label = "Condition not met"

[[record]]
variant_code = "A11C A33U"
qualitative_label = "Condition met"

[[record]]
variant_code = "G7C G38A"
qualitative_label = "Condition not met"

[[record]]
variant_code = "A4C C27U"
qualitative_label = "Condition not met"

[[record]]
variant_code = "G13A U31A"
qualitative_label = "Condition met"

[[record]]
variant_code = "A30C G38U"
qualitative_label = "Condition met"

[[record]]
variant_code = "A2C G39A"
qualitative_label = "Condition not met"

[[record]]
variant_code = "C15U G28U"
qualitative_label = "Condition met"

[[record]]
variant_code = "G16A U18G"
qualitative_label = "Condition not met"

[[record]]
variant_code = "G7A G29U"
qualitative_label = "Condition met"

[[record]]
variant_code = "A1U U31C"
qualitative_label = "Condition not met"

[[record]]
variant_code = "C25A G38C"
qualitative_label = "Condition not met"

[[record]]
variant_code = "C9U C15U"
qualitative_label = "Condition met"

[[record]]
variant_code = "A11C C26U"
qualitative_label = "Condition not met"

[[record]]
variant_code = "C19U G42C"
qualitative_label = "Condition met"

[[record]]
variant_code = "U12A C15U"
qualitative_label = "Condition met"

[[record]]
variant_code = "A10U G47U"
qualitative_label = "Condition met"

[[record]]
variant_code = "G24A G44C"
qualitative_label = "Condition not met"

[[record]]
variant_code = "C26U G42C"
qualitative_label = "Condition not met"

[[record]]
variant_code = "U12A C46G"
qualitative_label = "Condition met"

[[record]]
variant_code = "A30U A40U"
qualitative_label = "Condition not met"

[[record]]
variant_code = "G16A A32C"
qualitative_label = "Condition met"

[[record]]
variant_code = "C20U G38U"
qualitative_label = "Condition met"

[[record]]
variant_code = "G24C A34U"
qualitative_label = "Condition not met"

[[record]]
variant_code = "G17A G39U"
qualitative_label = "Condition not met"

[[record]]
variant_code = "C14U G36U"
qualitative_label = "Condition met"

